The following molecules are listed with their measured GI50 values.
system: SK-MEL-5; assay: NCI tumour cell line growth inhibition, 48 h
The source made the active and inactive calls. Cut-off read from the data, not from the text of the source: active = GI50 up to about 1.1 µM and inactive = higher.
observationType: GI50

Cn1c(=O)c2/c(n(C)c1=O)=N\C=c1\c(=O)n(C)c(=O)n(C)\c1=N\C=2: > 100 µM (inactive)
CCOC1Oc2ccccc2-c2nc(SC)ncc21 (stereo not drawn): 52.5 µM (inactive)
Oc1ccc(Cl)cc1-c1nc(S)nc(-c2ccccc2)c1Cl: > 61.7 µM (inactive)

---

test system: COLO 205; assay: NCI tumour cell line growth inhibition, 48 h
Activity calls are given as the source filed them. Cut-off read from the data, not from the text of the source: active = GI50 up to about 1.1 µM and inactive = higher.
The following compounds are listed with their measured GI50 values.
observationType: GI50

C[C@@H](c1ccccc1)n1c(N)c(-c2ccccn2)c2ccc([N+](=O)[O-])cc2c1=O: 38.2 µM (inactive)
Cn1c(=O)c(-c2ccccc2)c(O)c2ccccc21: > 100 µM (inactive)
O=C1CSC(c2ccccc2)N1c1nc2cc3sc(N4C(=O)CSC4c4ccccc4)nc3cc2s1 (stereo not given): 2.85 µM (inactive)
CC1=C2N3C[C@@H](n4c(=O)n(C)c(=O)n43)C23CCC1n1c(=O)n(C)c(=O)n13: 48 µM (inactive)
COc1cc2cnc(-c3ccccc3)cc2cc1OC: 20.9 µM (inactive)
Cc1cc2ncn(C3CCCO3)c2cc1C (stereo not given): > 100 µM (inactive)
COc1ccc2c(=O)c(-c3cc4c(cc3OC)OCO4)coc2c1: > 100 µM (inactive)
O=C1CC(O)c2cscc21 (stereo not given): 34 µM (inactive)
O=C1CCCC/C1=C\c1ccc(Cl)c(Cl)c1: 35.1 µM (inactive)
COC(CN(C=O)[C@@H](c1ccc(Cl)cc1)c1cc2ccccc2o1)OC: 17.6 µM (inactive)

---

system: NCI/ADR-RES; experiment: NCI tumour cell line growth inhibition, 48 h
Activity calls are given as the source filed them. No stated cut-off is given here; in the data, active = GI50 up to about 1.1 µM and inactive = higher.
observationType: GI50

C=CC(=O)C#Cc1cnc(OC)nc1OC: 31.3 µM (inactive)
CCCCc1ccc(Nc2nc3ncnc-3c[nH]2)cc1: 18.3 µM (inactive)
CCCCCCCCCc1cc(O)c(O)cc1CCCCCCCCC: > 10 µM (inactive)
O=C(NNC(=S)Nc1ccc(Cl)cc1)c1cc(-c2ccccc2)nc2ccccc12: 5.27 µM (inactive)
c1ccc2c(c1)N[C@@H]1c3[nH]c4ccccc4c3CC[C@H]21: 13.6 µM (inactive)
COc1ccc(OC)c2sc(N3C(=O)/C(=C/Cc4ccco4)N=C3c3ccccc3)nc12: 63.1 µM (inactive)
COC(=O)C1(NC(=O)C(Cc2ccccc2)N(C(=O)OC(C)(C)C)C(=O)OC(C)(C)C)CCCC1 (stereo not drawn): 22.3 µM (inactive)
CC1=CC(C)(C)NN1C1=NS(=O)(=O)c2ccccc2N1C: > 100 µM (inactive)

---

test system: A549; assay: NCI tumour cell line growth inhibition, 48 h
Active and inactive are the calls of the source. Cut-off read from the data, not from the text of the source: active = GI50 up to about 1.1 µM and inactive = higher.
Outcome codes: true (active), false (inactive)

Cc1ccc(Nc2cc(=O)[nH]c(=O)[nH]2)cc1CS: false
COc1cccc(/C(C=O)=C(\Cl)c2ccc(OC)c(OC)c2)c1: false
CC1(C)CN=C(c2ccc3ccccc3c2O)N1: false
CC1CCC2c3c([nH]c4ccccc34)C3C(=O)N(C4CCCCC4)C(=O)C3C2C1 (centres undefined): false
C=C1CC[C@@H]2[C@](C)(COC(=O)CCC(=O)O)CCC[C@@]2(C)[C@@H]1CCC1=CC(=O)OC1: false
CC1(C)OCN(c2ccc(S(N)(=O)=O)cc2)Cn2c1nc1ccccc12: false
C/C(=N/NC(=S)Nc1ccccc1C)c1ccccn1: true
COc1cc(C(O)C(=O)c2nc3ccc([N+](=O)[O-])cc3nc2O)ccc1O (centres undefined): false
CCCCN(CCCC)C(=O)C(=O)C(C(=O)c1ccc(OC)cc1)c1ccc(OC)cc1 (centres undefined): false
